Test: HBEC Part B pharmacokinetics, participants with PD
Format: in vivo, human
Details: human, in vivo, oral, 75 mg, participants with PD, Day 14, LY 75 mg Titration (N = 8); read-out: tmax, median
ENDPOINT LABEL: Tmax (h)
Report the value in h with no unit label.

Request: So what does the record say about Tmax for C[C@H]1c2cccc(CCC(C)(C)O)c2C[C@H](CO)N1C(=O)Cc1c(Cl)cccc1Cl ?
Response: 2.5

###

Test: HBEC Part A pharmacokinetics, healthy subjects
Assay type: in vivo, human
Settings: human, in vivo, oral, Day 14, LY 15 mg (N = 9), geometric mean
Description: In this randomized, double-blind, placebo-controlled, multiple ascending dose, parallel-group study, HBEC, healthy subjects (Part A) and participants with PD (Part B) received once-daily doses of LY3154207 (15, 30, 75, or 150 mg in Part A and up to 75 mg in Part B) or placebo for 14 days, as illustrated in FIG. 3. […]
ENDPOINT LABEL: Cmax (ng/mL)
Report the value in ng/mL with no unit label.

Request: So what does the record say about Cmax for C[C@H]1c2cccc(CCC(C)(C)O)c2C[C@H](CO)N1C(=O)Cc1c(Cl)cccc1Cl [LY3154207] ?
Response: 66.2

###

Test: HBEA plasma pharmacokinetics after single doses
Format: in vivo, human
Details: both sexes, human; plasma, single doses; read-out: median tmax
From the text: HBEA is a single ascending dose study of a D1 receptor positive allosteric modulator LY3154207 in healthy volunteers. Study HBEA aims to determine the safety, tolerability, and peripheral and central pharmacokinetics (PK) of single ascending doses of LY3154207 in healthy subjects. Study HBEB aims to evaluate the effect of single-dose LY3154207 on sleep latency in sleep-deprived healthy male subjects as measured by a multiple sleep latency test (MSLT). […]
ENDPOINT LABEL: Tmax

Request: So what does the record say about Tmax for C[C@H]1c2cccc(CCC(C)(C)O)c2C[C@H](CO)N1C(=O)Cc1c(Cl)cccc1Cl ?
Response: 2 to 3 h

###

Test: HBEA Part B cerebrospinal fluid (CSF) pharmacokinetics after a single dose
Assay type: in vivo, human
Settings: both sexes, human, CSF; read-out: CSF/unbound plasma ratio
Source text: HBEA is a single ascending dose study of a D1 receptor positive allosteric modulator LY3154207 in healthy volunteers. Study HBEA aims to determine the safety, tolerability, and peripheral and central pharmacokinetics (PK) of single ascending doses of LY3154207 in healthy subjects. Study HBEB aims to evaluate the effect of single-dose LY3154207 on sleep latency in sleep-deprived healthy male subjects as measured by a multiple sleep latency test (MSLT). […]
ENDPOINT LABEL: Kp
Give your answer as a number; write no unit.

Request: So what does the record say about Kp for C[C@H]1c2cccc(CCC(C)(C)O)c2C[C@H](CO)N1C(=O)Cc1c(Cl)cccc1Cl ?
Response: 0.3

###

Experiment: HBEA Part B cerebrospinal fluid (CSF) pharmacokinetics after a single dose
Format: in vivo, human
Conditions: both sexes, human, CSF; read-out: CSF median tmax
ENDPOINT LABEL: Tmax

Request: So what does the record say about Tmax for C[C@H]1c2cccc(CCC(C)(C)O)c2C[C@H](CO)N1C(=O)Cc1c(Cl)cccc1Cl ?
Response: 3 to 4 h

###

Assay: HBEC Part B pharmacokinetics, participants with PD
Type: in vivo, human
Conditions: human, in vivo, oral, 75 mg, participants with PD, Day 14, LY 75 mg Titration (N = 8), geometric mean; read-out: AUC(0-24)
ENDPOINT LABEL: AUC(0-t) (ng·h/mL)
Report the value in ng·h/mL with no unit label.

Request: So what does the record say about AUC(0-t) for C[C@H]1c2cccc(CCC(C)(C)O)c2C[C@H](CO)N1C(=O)Cc1c(Cl)cccc1Cl ?
Response: 3680
